# measurement_target: MASP-2 CCP2-SP (Homo sapiens (Human), UniProt O00187)
# Sequence (O00187 445-686): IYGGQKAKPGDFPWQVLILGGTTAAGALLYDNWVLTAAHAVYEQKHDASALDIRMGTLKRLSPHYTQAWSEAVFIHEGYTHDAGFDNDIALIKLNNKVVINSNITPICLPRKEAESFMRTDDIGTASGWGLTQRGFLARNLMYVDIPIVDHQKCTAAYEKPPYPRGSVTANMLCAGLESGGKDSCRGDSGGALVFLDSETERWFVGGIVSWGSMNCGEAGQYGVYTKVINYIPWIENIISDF
# Sequence (O00187 364-432 partner): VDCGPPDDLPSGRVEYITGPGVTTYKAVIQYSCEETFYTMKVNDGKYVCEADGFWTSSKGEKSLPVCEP
# assay_comment: MASP-2 co-crystallization, X-ray crystallography and structure analysis (H-bonds, van der Waals contacts)
# experimental_context: Table A6-2 pharmacophore angle
Structures can show the parent of a compound that is named as a salt.
reported_property: a(O2, N2, C4) 2

> print(dat)
                                   compound                        measurement.target  measured.number
1  C[C@H](NC(=O)[C@H](N)CCc1cccc(Cl)c1)C(=O)NCc1ccc(C(=N)N)cc1 [compound 1081]  MASP-2 CCP2-SP (Homo sapiens (Human), UniProt O00187)           119.80
2  C[C@H](NC(=O)[C@@H](CCc1ccccc1)NCc1ccc(N2CCOCC2)cc1)C(=O)NCc1ccc(C(=N)N)cc1 [compound 1149]  MASP-2 CCP2-SP (Homo sapiens (Human), UniProt O00187)            49.80
3  Cc1nc(N)ccc1CNC(=O)[C@H](C)NC(=O)[C@H]1C[C@H](Cc2cccc(Cl)c2)CN1.Cl.Cl [1328_2]  MASP-2 CCP2-SP (Homo sapiens (Human), UniProt O00187)           109.44
4  Cc1nc(N)ccc1CNC(=O)[C@H](C)NC(=O)[C@H]1C[C@H](Cc2cccc(Cl)c2)CN1.Cl.Cl [1328_4]  MASP-2 CCP2-SP (Homo sapiens (Human), UniProt O00187)           109.36
5  Cc1nc(N)ccc1CNC(=O)[C@H](C)NC(=O)[C@H]1C[C@H](Cc2cccc(Cl)c2)CN1.Cl.Cl [1328_3]  MASP-2 CCP2-SP (Homo sapiens (Human), UniProt O00187)           106.08
6  C[C@H](NC(=O)[C@H](N)CCc1cc(Cl)cc(Cl)c1)C(=O)NCc1ccc(C(=N)N)cc1 [compound 1118]  MASP-2 CCP2-SP (Homo sapiens (Human), UniProt O00187)           125.21
7  Cc1nc(N)ccc1CNC(=O)[C@H](C)NC(=O)[C@H]1C[C@H](Cc2ccccc2Br)CN1.O=C(O)C(F)(F)F.O=C(O)C(F)(F)F [1372_A]  MASP-2 CCP2-SP (Homo sapiens (Human), UniProt O00187)           127.51
8  Cc1nc(N)ccc1CNC(=O)[C@H](C)NC(=O)[C@H]1C[C@H](Cc2cc(Cl)cc(Cl)c2)CN1 [compound 1435, Dihydrochloride]  MASP-2 CCP2-SP (Homo sapiens (Human), UniProt O00187)           121.06
9  Cc1nc(N)ccc1CNC(=O)[C@H](C)NC(=O)[C@H]1C[C@H](Cc2cccc(Cl)c2)CN1.Cl.Cl [1328_1]  MASP-2 CCP2-SP (Homo sapiens (Human), UniProt O00187)           114.03

====

# measurement_target: UniProt O00187
# assay_comment: MASP-2 co-crystallization, X-ray crystallography and structure analysis (H-bonds, van der Waals contacts)
# experimental_context: Table A7-1; between pharmacophore elements of the bound compound
Where a name gives a salt, the structure may show the parent alone.
reported_property: Pharmacophore torsion angle a(C3, CA1, O1, H4)

> print(dat)
                                    compound  measured.number
 1  Cc1nc(N)ccc1CNC(=O)[C@H](C)NC(=O)[C@H]1C[C@@H](c2cccc3ccccc23)CCN1.Cl.Cl [1297_5]            30.12
 2  Cc1nc(N)ccc1CNC(=O)[C@H](C)NC(=O)[C@H]1C[C@H](Cc2cccc(Cl)c2)CN1.Cl.Cl [1328_1]            30.10
 3  Cc1nc(N)ccc1CNC(=O)C(C)NC(=O)C1CC(c2cccc3ccccc23)CCN1.Cl.Cl (stereo not drawn) [1297_6]            27.46
 4  Cc1nc(N)ccc1CNC(=O)[C@H](C)NC(=O)[C@H]1C[C@H](Cc2ccc3ccccc3c2)CN1            23.02
 5  Cc1nc(N)ccc1CNC(=O)[C@H](C)NC(=O)[C@H]1C[C@@H](c2ccccc2)CCN1CCC(=O)O [compound 1411, Trifluoroacetate salt]            24.51
 6  Cc1nc(N)ccc1CNC(=O)[C@H](C)NC(=O)[C@H]1C[C@H](Cc2cccc(Cl)c2)CN1.Cl.Cl [1328_2]            21.76
 7  Cc1nc(N)ccc1CNC(=O)[C@H](C)NC(=O)[C@H]1C[C@H](Cc2cccc(Cl)c2)CN1.Cl.Cl [1328_4]            66.00
 8  Cc1nc(N)ccc1CNC(=O)[C@H](C)NC(=O)[C@H]1C[C@H](Cc2ccc(-c3ccccc3)cc2)CN1            26.55
 9  Cc1nc(N)ccc1CNC(=O)[C@H](C)NC(=O)[C@H]1C[C@@H](Cc2ccccc2)CCN1            23.38
10  Cc1nc(N)ccc1CNC(=O)C(C)NC(=O)C1CC(c2cccc3ccccc23)CCN1.Cl.Cl (stereo not drawn) [1297_1]            30.15
11  Cc1nc(N)ccc1CNC(=O)C(C)NC(=O)[C@H]1C[C@H](c2cccc(-c3ccccc3)c2)CN1 (stereo in doubt)            24.01
12  Cc1nc(N)ccc1CNC(=O)[C@H](C)NC(=O)[C@H]1C[C@H](Cc2cc(Cl)cc(Cl)c2)CN1 [compound 1435, Dihydrochloride]            24.44
13  Cc1nc(N)ccc1CNC(=O)[C@H](C)NC(=O)[C@H]1C[C@@H](c2ccccc2)CCN1 [compound 1253, Dihydrochloride]            26.20
14  Cc1nc(N)ccc1CNC(=O)[C@H](C)NC(=O)[C@H]1C[C@H](Cc2ccccc2)CN1            24.93
15  Cc1nc(N)ccc1CNC(=O)[C@H](C)NC(=O)[C@H]1C[C@@H](c2cccc3ccccc23)CCN1.Cl.Cl [1297_4]            28.23
16  Cc1nc(N)ccc1CNC(=O)[C@H](C)NC(=O)[C@H]1C[C@H](Cc2ccccc2Br)CN1.O=C(O)C(F)(F)F.O=C(O)C(F)(F)F [1372_B]            25.77
17  Cc1nc(N)ccc1CNC(=O)[C@H](C)NC(=O)[C@H]1C[C@H](Cc2cccc(-c3ccccc3)c2)CN1            23.93
18  Cc1nc(N)ccc1CNC(=O)[C@H](C)NC(=O)[C@H]1C[C@@H](c2cccc3ccccc23)CCN1.Cl.Cl [1297_2]            29.10
19  Cc1nc(N)ccc1CNC(=O)[C@H](C)NC(=O)[C@H]1C[C@H](Cc2ccccc2Br)CN1.O=C(O)C(F)(F)F.O=C(O)C(F)(F)F [1372_A]            25.78
20  Cc1nc(N)ccc1CNC(=O)C(C)NC(=O)C1CC(c2cccc3ccccc23)CCN1.Cl.Cl (stereo not drawn) [1297_3]            28.95
21  Cc1nc(N)ccc1CNC(=O)[C@H](C)NC(=O)c1cc(Cc2ccccc2)n[nH]1            23.21
22  CC(=O)Nc1ccc(CCN[C@H](CCc2ccccc2)C(=O)N[C@@H](C)C(=O)NCc2ccc(N)nc2C)cc1 [compound 1368, Dihydrochloride]            22.95
23  Cc1nc(N)ccc1CNC(=O)[C@H](C)NC(=O)[C@H]1C[C@H](Cc2ccccc2-c2ccccc2)CN1 [compound 1373, Di-trifluoroacetate salt]            25.67
24  Cc1nc(N)ccc1CNC(=O)[C@H](C)NC(=O)[C@H]1C[C@H](Cc2cc(-c3ccccc3)cs2)CN1 [compound 1399, Dihydrochloride]            24.20
25  Cc1nc(N)ccc1CNC(=O)[C@H](C)NC(=O)[C@H]1C[C@H](Cc2cccc(Cl)c2)CN1.Cl.Cl [1328_3]            57.52
26  Cc1nc(N)ccc1CNC(=O)[C@H](C)NC(=O)[C@H]1C[C@@H](c2ccccc2)CCN1C            21.88
27  Cc1cccc([C@H]2CN[C@@H](C(=O)N[C@@H](C)C(=O)NCc3ccc(N)nc3C)C2)c1 [compound 1257, Dihydrochloride]            30.77
